Cited source: ChEMBL document CHEMBL4417631

assay: Half life in simulated intestinal fluid at 20 uM by LC-MS/MS analysis; format: ADME
*1 amine or outer side, *2 acyl side, *3 side chain or, on linkers, in order; H or OH if unused. Where a SMILES comes first, the peptide text is derived from it. Bridges are numbered along the chain shown (N, C = ends). [ ]: non-standard residue; d: D form. Abu(4-yl) = O=C([C@H](CC[*:3])N[*:1])[*:2]; 2Nal = N[C@@H](Cc1ccc2ccccc2c1)C(=O)O; AEF = NCCOc1ccc(C[C@H](N)C(=O)O)cc1; αMeK = C[C@](N)(CCCCN)C(=O)O
The following compounds are shown together with reported half-life at 20 µM values.

compound | half-life at 20 µM
COc1ccc(C[C@H](NC(=O)[C@@H](NC(=O)[C@H](CCC(N)=O)NC(=O)[C@H](Cc2c[nH]c3ccccc23)NC(=O)[C@@H](NC(=O)[C@H](CC(N)=O)NC(=O)[C@@H](NC(C)=O)C(C)(C)S)[C@@H](C)O)C(C)(C)S)C(=O)N[C@@H](Cc2ccc3ccccc3c2)C(=O)NC2(C(=O)N[C@@H](CCCCNC(C)=O)C(=O)N[C@@H](CC(N)=O)C(=O)N[C@@H](CC(N)=O)C(N)=O)CCCCC2)cc1 | 3 to 6 h
CC(=O)NCCCC[C@H](NC(=O)C(C)(C)NC(=O)[C@H](Cc1cccc2ccccc12)NC(=O)[C@H](Cc1ccc(OCCN)cc1)NC(=O)[C@@H]1CSCC[C@H](NC(C)=O)C(=O)N[C@@H](CCC(N)=O)C(=O)N[C@@H]([C@@H](C)O)C(=O)N[C@@H](Cc2c[nH]c3ccccc23)C(=O)N[C@@H](CCC(N)=O)C(=O)N1)C(=O)N[C@@H](CC(N)=O)C(=O)NCC(N)=O | > 6 h
CC(=O)NCCCC[C@H](NC(=O)C(C)(C)NC(=O)[C@H](Cc1ccc2ccccc2c1)NC(=O)[C@H](Cc1ccc(OCCNC(C)=O)cc1)NC(=O)[C@@H](NC(=O)[C@H](CCC(N)=O)NC(=O)[C@H](Cc1c[nH]c2ccccc12)NC(=O)[C@@H](NC(=O)[C@H](CCC(N)=O)NC(=O)[C@@H](NC(C)=O)C(C)(C)S)[C@@H](C)O)C(C)(C)S)C(=O)N[C@@H](CC(N)=O)C(=O)N[C@@H](CC(N)=O)C(N)=O | > 6 h
CC(=O)N[C@@H](CS)C(=O)N[C@@H](CCC(N)=O)C(=O)N[C@H](C(=O)N[C@@H](Cc1c[nH]c2ccccc12)C(=O)N[C@@H](CCC(N)=O)C(=O)N[C@H](C(=O)N[C@@H](Cc1ccc(O)cc1)C(=O)N[C@@H](Cc1c[nH]c2ccccc12)C(=O)N[C@@](C)(CC(C)C)C(=O)N[C@@H](CCC(=O)O)C(=O)N[C@@H](CC(N)=O)C(=O)NCC(N)=O)C(C)(C)S)[C@@H](C)O | < 1 h
CC(=O)NC[C@H](NC(=O)[C@H](CCCN)NC(=O)[C@H](Cc1c[nH]c2ccccc12)NC(=O)[C@H](Cc1ccc(OCCN)cc1)NC(=O)[C@@H]1CSCC[C@H](NC(C)=O)C(=O)N[C@@H](CCC(N)=O)C(=O)N[C@@H]([C@@H](C)O)C(=O)N[C@@H](Cc2c[nH]c3ccccc23)C(=O)N[C@@H](CCC(N)=O)C(=O)N1)C(=O)N[C@@H](CC(N)=O)C(=O)NCC(N)=O | < 1 h
CC(=O)N[C@H]1CCSC[C@@H](C(=O)N[C@@H](Cc2ccc(OCCN)cc2)C(=O)N[C@@H](Cc2ccc3ccccc3c2)C(=O)N[C@@](C)(CCCCN)C(=O)N[C@@H](CC(N)=O)C(=O)N[C@@H](CC(N)=O)C(=O)NCC(N)=O)NC(=O)[C@H](CCC(N)=O)NC(=O)[C@H](Cc2c[nH]c3ccccc23)NC(=O)[C@H]([C@@H](C)O)NC(=O)[C@H](CCC(N)=O)NC1=O (Ac-[Abu(4-yl)]QTWQC[AEF][2Nal][αMeK]NNG-NH2; thioether 1-6) | 3 to 6 h
COc1ccc(C[C@H](NC(=O)[C@@H]2CSCC[C@H](NC(C)=O)C(=O)N[C@@H](CCC(N)=O)C(=O)N[C@@H]([C@@H](C)O)C(=O)N[C@@H](Cc3c[nH]c4ccccc34)C(=O)N[C@@H](CCC(N)=O)C(=O)N2)C(=O)N[C@@H](Cc2c[nH]c3ccccc23)C(=O)N[C@@](C)(CCCN)C(=O)N[C@@H](CCC(=O)O)C(=O)N[C@@H](CC(N)=O)C(=O)NCC(N)=O)cc1 | 3 to 6 h
CC(=O)NCCOc1ccc(C[C@H](NC(=O)[C@@H]2CSCC[C@H](NC(C)=O)C(=O)N[C@@H](CCC(N)=O)C(=O)N[C@@H]([C@@H](C)O)C(=O)N[C@@H](Cc3c[nH]c4ccccc34)C(=O)N[C@@H](CCC(N)=O)C(=O)N2)C(=O)N[C@@H](Cc2ccc3ccccc3c2)C(=O)N[C@@](C)(CCCCN)C(=O)N[C@@H](CCC(=O)O)C(=O)N[C@@H](CC(N)=O)C(=O)NCC(N)=O)cc1 | 1 to 2 h
COc1ccc(C[C@H](NC(=O)[C@@H](NC(=O)[C@H](CCC(N)=O)NC(=O)[C@H](Cc2c[nH]c3ccccc23)NC(=O)[C@@H](NC(=O)[C@H](CCC(N)=O)NC(=O)[C@@H](NC(C)=O)C(C)(C)S)[C@@H](C)O)C(C)(C)S)C(=O)N[C@@H](Cc2cccc3ccccc23)C(=O)N[C@@](C)(CCCCN)C(=O)N[C@@H](CCCCNC(C)=O)C(=O)N[C@@H](CC(N)=O)C(=O)NCC(N)=O)cc1 | > 6 h
COc1ccc(C[C@H](NC(=O)[C@@H]2CSCC[C@H](NC(C)=O)C(=O)N[C@@H](CCC(N)=O)C(=O)N[C@@H]([C@@H](C)O)C(=O)N[C@@H](Cc3c[nH]c4ccccc34)C(=O)N[C@@H](CCC(N)=O)C(=O)N2)C(=O)N[C@@H](Cc2ccc3ccccc3c2)C(=O)N[C@H](C(=O)N[C@@H](CCCCNC(C)=O)C(=O)N[C@@H](CC(N)=O)C(=O)NCC(N)=O)C2CCCCC2)cc1 | 2 to 6 h
